Biological target: T1, Human Factor P (human, UniProt P27918 29-469)
T1 construct: Bought protein (Complement Technology cat# A139) in SET and Biacore; Factor P of human serum in the functional assays; also called FP; human FP
T1 sequence (P27918 29-469 limits assumed): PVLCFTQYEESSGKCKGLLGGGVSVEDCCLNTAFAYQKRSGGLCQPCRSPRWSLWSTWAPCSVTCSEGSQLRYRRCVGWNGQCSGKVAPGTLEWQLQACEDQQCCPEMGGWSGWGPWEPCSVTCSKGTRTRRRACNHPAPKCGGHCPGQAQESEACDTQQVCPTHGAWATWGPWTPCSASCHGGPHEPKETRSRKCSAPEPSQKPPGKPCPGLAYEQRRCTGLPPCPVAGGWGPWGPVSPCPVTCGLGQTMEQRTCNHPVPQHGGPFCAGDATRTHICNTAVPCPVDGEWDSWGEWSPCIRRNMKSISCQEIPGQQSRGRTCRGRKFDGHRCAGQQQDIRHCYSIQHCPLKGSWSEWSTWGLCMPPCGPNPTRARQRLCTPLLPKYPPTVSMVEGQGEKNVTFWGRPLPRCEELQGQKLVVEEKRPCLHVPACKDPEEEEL
Test: Biacore SPR, captured Factor P
measured_endpoint: Kd (nM)
Please give a number only; it is taken to be in nM.

// query Kd value for entry NVS807 (Fab, V domains shown) VH: EVQLVQSGAEVKKPGSSVKVSCKASGGTFSSYAISWVRQAPGQGLEWMGRIIPIFGTANYAQKFQGRVTITADESTSTAYMELSSLRSEDTAVYYCARHGGYYFDSWGQGTLVTVSS VL: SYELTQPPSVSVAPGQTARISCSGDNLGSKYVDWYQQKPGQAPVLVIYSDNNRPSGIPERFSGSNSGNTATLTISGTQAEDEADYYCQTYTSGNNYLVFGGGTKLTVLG
0.106

What about NVS806 (Fab, V domains shown) VH: EVQLVQSGAEVKKPGSSVKVSCKASGGTFSSYAISWVRQAPGQGLEWMGRIIPIFGTANYAQKFQGRVTITADESTSTAYMELSSLRSEDTAVYYCARHGGYVFDSWGQGTLVTVSS VL: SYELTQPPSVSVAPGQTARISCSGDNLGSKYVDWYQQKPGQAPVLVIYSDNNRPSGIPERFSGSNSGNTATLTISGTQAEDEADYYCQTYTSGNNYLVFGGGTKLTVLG ?
0.052
